# System: IL-13 induced STAT6 phosphorylation in BEAS-2B human lung epithelial cells
# TEST DETAILS: Cellular JAKI potency assay (BEAS-2B)
# Format: cell-based
# CONDITION SUMMARY: Homo sapiens, BEAS-2B, BEAS-2B cells, read-out: BEAS2B pIC50 (converted)
# Procedure: The JAKI cellular potency assay was carried out by measuring inhibition of interleukin-13 (IL-13, R&D Systems) induced STAT6 phosphorylation in BEAS-2B human lung epithelial cells (ATCC). […] Levels of pSTAT6 were measured using the AlphaLISA SureFire Ultra pSTAT6 (Tyr641) assay kit from PerkinElmer. For dose-response analysis, percent inhibition data were plotted vs. compound concentrations, and IC50 values were determined from a 4-parameter robust fit model with the Graphpad Prism software. […]
VALUE TYPE: IC50

Prompt line: Fill blank: measured IC50 of the compound CCc1cc(O)ccc1-c1ccc2c(-c3nc(C4=CCCN(CCS(=O)(=O)NC)C4)c[nH]3)n[nH]c2c1 [Example 89] is ____.
Response line: 10 to 31.6 nM

Prompt line: Fill blank: measured IC50 of the compound CCc1cc(O)ccc1-c1ccc2c(-c3nc(C4=CCN(S(C)(=O)=O)C4)c[nH]3)n[nH]c2c1F [Example 172] is ____.
Response line: 10 to 31.6 nM

Prompt line: Fill blank: measured IC50 of the compound CCc1cc(O)ccc1-c1ccc2c(-c3nc(C4=CCN(CC5CCCOC5)CC4)c[nH]3)n[nH]c2c1F (stereo not drawn) [Example 63] is ____.
Response line: 10 to 31.6 nM

Prompt line: Fill blank: measured IC50 of the compound CCc1cc(O)ccc1-c1ccc2c(-c3nc(C4=CCCN(C5CCN(C)C5)C4)c[nH]3)n[nH]c2c1F (stereo not drawn) [Example 215] is ____.
Response line: 31.6 to 100 nM

Prompt line: Fill blank: measured IC50 of the compound CCc1cc(O)ccc1-c1ccc2c(-c3nc(C4=CCN(CCCOC)CC4)c[nH]3)n[nH]c2c1 [Example 56] is ____.
Response line: 3.16 to 10 nM

Prompt line: Fill blank: measured IC50 of the compound CCc1cc(O)ccc1-c1ccc2c(-c3nc(C4=CC[C@H](C)N([C@H]5C[C@H](O)C5)C4)c[nH]3)n[nH]c2c1F [Example 337] is ____.
Response line: 10 to 31.6 nM

Prompt line: Fill blank: measured IC50 of the compound CCc1cc(O)ccc1-c1ccc2c(-c3nc(C4=CCN(C[C@@H](C)CO)C4)c[nH]3)n[nH]c2c1F [Example 318] is ____.
Response line: 10 to 31.6 nM

Prompt line: Fill blank: measured IC50 of the compound CCc1cc(O)ccc1-c1ccc2c(-c3nc(C4=CCN(C5COC5)CC4)c[nH]3)n[nH]c2c1 [Example 57] is ____.
Response line: 10 to 31.6 nM

Prompt line: Fill blank: measured IC50 of the compound CCc1cc(O)ccc1-c1ccc2c(-c3nc(C4=CCN(CCN5CCNC5=O)C4)c[nH]3)n[nH]c2c1 [Example 127] is ____.
Response line: 10 to 31.6 nM

Prompt line: Fill blank: measured IC50 of the compound CCc1cc(O)ccc1-c1ccc2c(-c3nc(C4=C[C@H](CC(=O)N(CC)CC)NC4)c[nH]3)n[nH]c2c1F [Example 340] is ____.
Response line: 10 to 31.6 nM

Prompt line: Fill blank: measured IC50 of the compound CCc1cc(O)ccc1-c1ccc2c(-c3nc(C4=CCCN(CCCO)C4)c[nH]3)n[nH]c2c1 [Example 42] is ____.
Response line: 3.16 to 10 nM

Prompt line: Fill blank: measured IC50 of the compound CCc1cc(O)ccc1-c1ccc2c(-c3nc(C4=CC[C@@H](C)NC4)c[nH]3)n[nH]c2c1 [Example 231] is ____.
Response line: 3.16 to 10 nM

Prompt line: Fill blank: measured IC50 of the compound CCc1cc(O)ccc1-c1ccc2c(-c3nc(C4=CCCN(C5CCN(C)CC5)C4)c[nH]3)n[nH]c2c1 [Example 192] is ____.
Response line: 10 to 31.6 nM

Prompt line: Fill blank: measured IC50 of the compound CCc1cc(O)ccc1-c1ccc2c(-c3nc(C4=CCCN(C5CC(O)C5)C4)c[nH]3)n[nH]c2c1 (stereo not drawn) [Example 43] is ____.
Response line: 3.16 to 10 nM

Prompt line: Fill blank: measured IC50 of the compound CCc1cc(O)ccc1-c1ccc2c(-c3nc(C4=CCCN(CCS(C)(=O)=O)C4)c[nH]3)n[nH]c2c1F [Example 91] is ____.
Response line: 10 to 31.6 nM
